Test system: Escherichia coli TOP10;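 also: peptides expressed intracellularly from a pBAD plasmid library in pooled LB shake-flask culture, induced with 0.3% L-arabinose, DNA abundance read by NGS, three biological replicates, DESeq2 with apeglm shrinkage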
Method Notes: shrunken log2 fold change of peptide-encoding DNA abundance (4.5 h post-induction vs induction); higher = less antimicrobial activity (less host growth inhibition)
Condition Description: time post-induction: 4.5 h; library: site-saturation at positions 5, 18, 19, 20
Decision: shrunken log2 fold change compared against -0.1; not below it gives Yes, below it gives No.

For orientation, consider the following solved cases.
- Sequence Chain: "RRIRERPPRLPRPRPRPHDWPRP"
  Class Assignment: "Yes"
- Sequence Chain: "RRIRNRPPRLPRPRPRPDRRPRP"
  Class Assignment: "No"
- Sequence Chain: "RRIRSRPPRLPRPRPRPYAEPRP"
  Class Assignment: "No"
- Sequence Chain: "RRIRCRPPRLPRPRPRPADMPRP"
  Class Assignment: "No"
- Sequence Chain: "RRIRIRPPRLPRPRPRPSFHPRP"
  Class Assignment: "No"
- Sequence Chain: "RRIRYRPPRLPRPRPRPVDYPRP"
  Class Assignment: "No"

*Q* Could you please find out whether RRIRCRPPRLPRPRPRPSMMPRP has shrunken log2 fold change that meets -0.1 or exceeds it?
*A* No

*Q* Proceed to RRIRRRPPRLPRPRPRPLCVPRP
*A* Yes

*Q* Consider next the sequence RRIRGRPPRLPRPRPRPQHGPRP in the same way.
*A* Yes

*Q* Record: RRIRHRPPRLPRPRPRPYSHPRP
*A* No
